# test-system: Tyrosyl-tRNA synthetase, putative (Trypanosoma cruzi (strain CL Brener))
# Sequence (whole entry): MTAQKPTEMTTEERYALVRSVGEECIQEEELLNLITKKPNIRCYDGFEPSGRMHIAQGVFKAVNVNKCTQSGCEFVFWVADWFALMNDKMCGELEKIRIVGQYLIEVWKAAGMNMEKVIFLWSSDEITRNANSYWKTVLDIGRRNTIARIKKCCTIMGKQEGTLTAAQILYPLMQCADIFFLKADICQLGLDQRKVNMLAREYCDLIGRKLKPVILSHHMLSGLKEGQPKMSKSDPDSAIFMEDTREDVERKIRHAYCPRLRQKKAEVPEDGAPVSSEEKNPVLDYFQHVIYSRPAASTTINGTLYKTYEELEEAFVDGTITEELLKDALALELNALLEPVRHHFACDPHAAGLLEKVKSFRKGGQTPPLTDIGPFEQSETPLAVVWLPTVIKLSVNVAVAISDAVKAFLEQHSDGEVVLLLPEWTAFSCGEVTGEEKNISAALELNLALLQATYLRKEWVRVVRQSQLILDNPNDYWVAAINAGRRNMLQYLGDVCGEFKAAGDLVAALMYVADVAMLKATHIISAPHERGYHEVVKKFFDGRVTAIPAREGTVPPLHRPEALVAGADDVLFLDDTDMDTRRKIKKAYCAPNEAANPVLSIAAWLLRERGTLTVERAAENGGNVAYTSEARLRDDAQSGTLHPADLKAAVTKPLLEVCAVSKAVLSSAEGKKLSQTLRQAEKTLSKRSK
# protocol-summary: Trypanosoma cruzi tyrosyl tRNA synthetase (TcYRS) SOP
# Assay type: functional
# Design: scale not given: direction of the effect not stated beside the values
# run-parameters: 30 µM
measured-endpoint: Percent Effect (%)
Numbers only; they are read as %.

These solved cases illustrate the format of a correct answer.
| molecule | unit-text | Percent Effect |
| --- | --- | --- |
| CSc1ccccc1CN1CCCn2nc(CNC(=O)N(C)C)cc2C1 | % | 12.5 |
| CC(C(=O)N1CCc2ccccc2C1)n1cc(Br)cn1 (stereo unspecified) | % | 13.6 |
| CCOc1ccccc1C1CCCN1 (stereo unspecified) | % | 2.6 |

What value of measured Percent Effect is listed for `Cc1ccc(N2CC[C@H]3C[C@@H](C(=O)N4CCOCC4)O[C@H]3C2)nn1` ?
15.4

What value of measured Percent Effect is listed for `O=C(NCc1ccco1)[C@@]12CCO[C@@H]1CCN(CCN1CCCC1)C2` ?
22.5

What value of measured Percent Effect is listed for `Cc1ccc(OC2(C(=O)O)CCN(C(=O)c3ccc(F)cc3)CC2)cn1` ?
7.32
